Reported Vpu Inhibition (score/# of times tested) values for the following compounds.
TARGET_OR_TEST_SYSTEM: Vpu protein (Human immunodeficiency virus type 1 group M subtype B, UniProt P05919)
Sequence (P05919 whole entry): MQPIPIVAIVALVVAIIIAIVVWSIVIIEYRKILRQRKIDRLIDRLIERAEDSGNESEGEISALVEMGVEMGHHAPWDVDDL
MEASUREMENT_CONDITIONS: halo of growth score between zero and six; XL1-blue E. coli with pPL-Vpu, no adenine, 37° C.
Counter-ions that a name gives are not always drawn.

Examples from the recorded data:
- COMPOUND: "N=C(N)NC(=O)/C=C/c1ccc2ccccc2c1 [3-(2-napthyl)acryloylguanidine]"
  Vpu Inhibition (score/# of times tested): "1.56/2 score"
- COMPOUND: "N=C(N)NC(=O)/C=C/c1cccc(F)c1F [2,3-difluorocinnamoylguanidine]"
  Vpu Inhibition (score/# of times tested): "1.56/2 score"
- COMPOUND: "Cc1cc(C)c(/C=C/C(=O)NC(=N)N)c(C)c1 [2,4,6-trimethylcinnamoylguanidine]"
  Vpu Inhibition (score/# of times tested): "1.4/2 score"
- COMPOUND: "NC(N)=NC(=O)/C=C/C=C/c1ccccc1 [(5-Phenyl-penta-2,4-dienoyl)guanidine]"
  Vpu Inhibition (score/# of times tested): "2.56/2 score"
- COMPOUND: "N=C(N)NC(=O)Cc1ccc2ccccc2c1 [2-(2-napthyl)acetoylguanidine]"
  Vpu Inhibition (score/# of times tested): "1.19/2 score"
- COMPOUND: "COc1ccc2cc(C(=O)NC(=N)N)ccc2c1 [6-methoxy-2-naphthoylguanidine]"
  Vpu Inhibition (score/# of times tested): "2.9/4 score"
- COMPOUND: "COc1ccc(Br)cc1/C=C/C(=O)NC(=N)N [5-bromo-2-methoxycinnamoylguanidine]"
  Vpu Inhibition (score/# of times tested): "1.9/2 score"
- COMPOUND: "N/C(=N\\C(=O)c1nc(Cl)c(N)nc1N)NCc1ccc(Cl)cc1Cl [2′4 DichloroBenzamil HCl]"
  Vpu Inhibition (score/# of times tested): "1.7/2 score"

Readout Vpu Inhibition (score/# of times tested) for N=C(N)NC(=O)Cc1cccc2ccccc12 [2-(1-napthyl)acetoylguanidine] , test system Vpu protein (Human immunodeficiency virus type 1 group M subtype B, UniProt P05919), was 1.56/2 score

Record N=C(N)NC(=O)c1ccc2ccccc2c1Br [1-bromo-2-napthoylguanidine] has Vpu protein (Human immunodeficiency virus type 1 group M subtype B, UniProt P05919) Vpu Inhibition (score/# of times tested) equal to 0.06/2 score

// compound CC(C)(C)Nc1nc(N)c(C(=O)N=C(N)N)nc1Cl [5-tert-butylamino-amiloride] , assay Vpu protein (Human immunodeficiency virus type 1 group M subtype B, UniProt P05919), Vpu Inhibition (score/# of times tested) value: 0.2/7 score

// assay Vpu protein (Human immunodeficiency virus type 1 group M subtype B, UniProt P05919), entry Cc1cc(C)c(C)c(/C=C/C(=O)NC(=N)N)c1C [2,3,5,6,-tetramethylcinnamoylguanidine] , Vpu Inhibition (score/# of times tested) value = 1.6/2 score

Measured values drawn from patent US11192863B2 for this set.
